system: MDA-MB-435 melanoma; assay: NCI-60 one-dose screen, 48 h; details: 10 µM unless noted
About 83,000 compounds went through this panel and 20% of them were active in at least one assay; those are over-represented in the sample as a whole. Active and inactive are the calls of the source. The calls were made as follows: active = growth percent below 10; inactive = the rest.
Classes used: 1 = active, 0 = inactive

{"columns": ["Compound", "Target Or System", "Label Class"],
 "data": [
  ["CC1(C)N=C(N)N=C(N)N1c1ccc(OCCCCNC(=O)Nc2cccc(S(=O)(=O)F)c2)c(Cl)c1", "MDA-MB-435 melanoma", 0],
  ["CO[C@@H](c1ccccc1Cl)[C@H](C)OC(N)=O", "MDA-MB-435 melanoma", 0],
  ["COC[CH2][Hg][C]#[C][Hg][CH2]COC", "MDA-MB-435 melanoma", 0],
  ["C=C=[CH][Sn]([c]1ccccc1)([c]1ccccc1)[c]1ccccc1", "MDA-MB-435 melanoma", 1],
  ["COc1cc(C2CC(=O)Nc3nc(N)[se]c32)c(OC)c2c1OCO2 (configuration not stated)", "MDA-MB-435 melanoma", 0],
  ["CCN(CC)CCOc1c(C(C)C)cccc1C(C)C", "MDA-MB-435 melanoma", 0],
  ["CN(Cc1cccnc1)N=O", "MDA-MB-435 melanoma", 0],
  ["CC(=O)N1N=C(c2ccccc2)CC1c1sc(N(CCCl)CCCl)nc1Cl (configuration not stated)", "MDA-MB-435 melanoma", 0],
  ["COP(=S)(OC)Oc1ccc(SC)c(C)c1", "MDA-MB-435 melanoma", 0],
  ["Oc1ccccc1OB(Oc1ccccc1O)N(CCCl)CCCl", "MDA-MB-435 melanoma", 0],
  ["O=C(/C=C/c1ccccc1)N[C@@H](CO)Cc1cnc[nH]1", "MDA-MB-435 melanoma", 0],
  ["C1CN1c1nc(N2CC2)nc(N2CC2)n1", "MDA-MB-435 melanoma", 0]
]}

====

test system: MDA-MB-231 breast; assay: NCI-60 one-dose screen, 48 h; conditions: 10 µM unless noted
About 83,000 compounds went through this panel and 20% of them were active in at least one assay; those are over-represented in the sample as a whole. Activity calls are given as the source filed them. The calls were made as follows: active = growth percent below 10; inactive = the rest.
Outcomes: YES for active, NO for inactive

{"columns": ["Chem Smiles", "Label Class"],
 "data": [
  ["CC1(C)N=C(N)N=C(N)N1c1ccc(OCCCCOc2ccc(S(=O)(=O)F)cc2)c(Cl)c1", "NO"],
  ["CCOC(=O)C1(c2ccccc2)CCN(CC(=O)c2ccc(NC(C)=O)cc2)CC1", "NO"],
  ["CC(C)OC(=S)[S-].[Au+].c1ccc([PH+](c2ccccc2)c2ccccc2)cc1", "YES"],
  ["Cc1nnc([S-])s1.[Au+].c1ccc([PH+](c2ccccc2)c2ccccc2)cc1", "YES"],
  ["CC1(C)N=C(N)N=C(N)N1c1ccc(OCCCCNC(=O)c2ccc(S(=O)(=O)F)cc2)c(Cl)c1", "NO"],
  ["[Cl][Hg][n]1cnc2c(Cl)c(Cl)c(Cl)cc21", "NO"],
  ["Nc1cccc2c1Oc1ccccc1O2", "NO"],
  ["CO[C@@H]1[C@H](OC(=O)NC(=O)CCl)CC[C@]2(CO2)[C@H]1[C@@]1(C)O[C@@H]1CC=C(C)C", "NO"],
  ["Cc1cc(NC(=O)NCCOc2ccc(N3C(N)=NC(N)=NC3(C)C)cc2Cl)ccc1S(=O)(=O)F", "NO"],
  ["COc1cc(NCCCCCN=C(N)N)c2ncccc2c1", "NO"],
  ["CC[C@]12C=CCN3CC[C@@]4(c5ccc(OC)cc5N(C)[C@H]4[C@@](O)(C(=O)OC)[C@@H]1OC(=O)CCCN1CCN(CCCC(=O)O[C@@H]4[C@]5(CC)C=CCN6CC[C@@]7(c8ccc(OC)cc8N(C)[C@H]7[C@@]4(O)C(=O)OC)[C@@H]65)CC1)[C@@H]32", "YES"],
  ["CC1(C)N=C(N)N=C(N)N1c1cccc(C(=O)Nc2cccc(S(=O)(=O)F)c2)c1", "NO"],
  ["O=C(NCCNC(=O)c1ccc([As](O)O)cc1)c1ccc([As](O)O)cc1", "NO"],
  ["CN=C(NN)NN", "NO"],
  ["ClCCN(CCCl)c1ccc(C=NCCc2c[nH]c3ccccc23)cc1", "NO"],
  ["CC[C@H](C)[C@H](NC(=O)Nc1ccccc1)C(=O)N(C)[C@H](C[C@@H](OC(C)=O)c1nc(C(=O)N[C@@H](Cc2ccccc2)C[C@H](C)C(=O)OC)cs1)C(C)C", "YES"],
  ["C[C@]12CCc3sc(-c4ccc(Cl)cc4)nc3C1=CC[C@@H]1[C@@H]2CC[C@]2(C)C(=O)CC[C@@H]12", "NO"],
  ["CCOC(=O)Nc1cc(Cl)c([N+](=O)[O-])c(NC(=O)OCC)n1", "NO"]
]}

All values here come from PubChem BioAssay (NCI).
